subject of test: RXRβ (Homo sapiens)
Construct: an expression construct including a full length RXRα, RXRβ, or RXRy; expressed in transfected cells; host or cells: CV-1
experiment notes: Competitive displacement of [3H]-9CRA from purified receptor
condition label: 10 nM [3H]-9CRA; read-out: RXR Binding Affinity Ki (nM) RXRβ
Description: Standard errors (±) among independent experiments are indicated.
experimental endpoint: Ki

Ki recorded for this compound, CCOC(=O)/C=C(C)/C=C/[C@@H]1C[C@]1(C)c1ccc2c(c1)C(C)(C)CCC2(C)C [IRX4204EE] , is > 1000 nM

###

subject of test: RXRγ (Homo sapiens, UniProt P48443)
Construct: an expression construct including a full length RXRα, RXRβ, or RXRy; expressed in transfected cells; host or cells: CV-1
Sequence (P48443 whole entry): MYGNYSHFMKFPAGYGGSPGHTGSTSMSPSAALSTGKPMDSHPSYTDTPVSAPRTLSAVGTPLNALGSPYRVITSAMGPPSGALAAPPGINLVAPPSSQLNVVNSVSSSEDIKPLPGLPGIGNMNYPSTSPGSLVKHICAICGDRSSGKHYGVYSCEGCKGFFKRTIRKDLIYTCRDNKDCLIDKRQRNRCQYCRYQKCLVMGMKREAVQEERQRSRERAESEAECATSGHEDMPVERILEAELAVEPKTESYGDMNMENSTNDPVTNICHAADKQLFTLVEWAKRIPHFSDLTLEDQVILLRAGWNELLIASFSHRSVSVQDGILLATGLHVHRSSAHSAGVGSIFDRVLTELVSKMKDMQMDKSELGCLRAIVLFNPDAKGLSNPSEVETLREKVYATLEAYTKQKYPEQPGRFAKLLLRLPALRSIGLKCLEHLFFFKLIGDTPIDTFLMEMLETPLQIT
experiment notes: Competitive displacement of [3H]-9CRA from purified receptor
condition label: 10 nM [3H]-9CRA; read-out: RXR Binding Affinity Ki (nM) RXRγ
experimental endpoint: Ki

Assay RXRγ (Homo sapiens, UniProt P48443), sample CCOC(=O)/C=C(C)/C=C/[C@@H]1C[C@]1(C)c1ccc2c(c1)C(C)(C)CCC2(C)C [IRX4204EE] , Ki read: > 1000 nM

###

subject of test: RXRβ (Homo sapiens, UniProt P28702)
Construct: an expression construct including a full length RXRα, RXRβ, or RXRy; expressed in transfected cells; host or cells: CV-1
Sequence (P28702 whole entry): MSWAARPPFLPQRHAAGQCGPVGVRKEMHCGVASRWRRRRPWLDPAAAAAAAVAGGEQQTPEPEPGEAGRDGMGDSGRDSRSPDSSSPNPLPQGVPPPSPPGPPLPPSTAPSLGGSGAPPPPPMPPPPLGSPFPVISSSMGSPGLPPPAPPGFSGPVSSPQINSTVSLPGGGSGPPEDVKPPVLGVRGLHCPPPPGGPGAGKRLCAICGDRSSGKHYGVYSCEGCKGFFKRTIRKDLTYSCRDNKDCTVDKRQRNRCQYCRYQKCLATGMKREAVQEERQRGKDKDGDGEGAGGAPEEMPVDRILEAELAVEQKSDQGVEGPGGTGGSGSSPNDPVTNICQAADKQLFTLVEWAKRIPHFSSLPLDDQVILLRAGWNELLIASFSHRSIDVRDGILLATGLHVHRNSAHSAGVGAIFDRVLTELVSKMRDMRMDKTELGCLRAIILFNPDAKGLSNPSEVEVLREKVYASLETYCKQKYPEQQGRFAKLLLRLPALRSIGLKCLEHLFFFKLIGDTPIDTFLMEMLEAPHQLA
experiment notes: RXR homodimer transactivation assay (rCRBPII/RXRE-tk-Luc reporter, CV-1 cells)
Format: cell-based
condition label: CV-1 cells, 20 hours, luciferase activity
experimental endpoint: EC50

EC50 recorded for this molecule, CCOC(=O)/C=C(C)/C=C/[C@@H]1C[C@]1(C)c1ccc2c(c1)C(C)(C)CCC2(C)C [IRX4204EE] , is > 1000 nM

###

subject of test: RARβ (Homo sapiens, UniProt P10826)
Construct: expressed in transfected cells; host or cells: CV-1
Sequence (P10826 183-417 limits assumed): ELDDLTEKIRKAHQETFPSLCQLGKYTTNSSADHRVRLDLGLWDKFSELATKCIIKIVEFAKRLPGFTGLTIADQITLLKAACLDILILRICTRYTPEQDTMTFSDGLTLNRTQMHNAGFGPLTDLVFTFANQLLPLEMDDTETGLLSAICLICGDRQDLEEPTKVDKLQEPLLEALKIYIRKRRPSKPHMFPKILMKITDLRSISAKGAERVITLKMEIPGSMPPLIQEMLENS
experiment notes: RAR transactivation assay (ER-RAR fusion, ERE-tk-Luc reporter, CV-1 cells)
Format: cell-based
condition label: 20 hours, luciferase activity
Description: Data are mean values ± SE from five independent experiments.
experimental endpoint: EC50

EC50 recorded for this compound, CCOC(=O)/C=C(C)/C=C/[C@@H]1C[C@]1(C)c1ccc2c(c1)C(C)(C)CCC2(C)C [IRX4204EE] , is > 1000 nM

###

experiment notes: Plasma and brain concentrations after intravenous injection in ICR mice (LC-MS/MS)
Type: in vivo
condition label: male, ICR, mouse, brain; 1 mg/kg IV, 3 hours post-administration
experimental endpoint: concentration at 3 h

concentration at 3 h recorded for this molecule, CC(/C=C/[C@@H]1C[C@]1(C)c1ccc2c(c1)C(C)(C)CCC2(C)C)=C\C(=O)O [IRX4204] , is 7.9 to 8.2 nM
